# Tested on: HL-60(TB) leukemia
# procedure.summary: NCI-60 one-dose screen, 48 h
# test.settings: 10 µM unless noted
This is part of a sample that, as a whole, favours compounds with a hit. Of some 83,000 tested, about 20% had one in any assay. Active and inactive are the calls of the source. The calls were made as follows: active = growth percent below 10; inactive = the rest.
Respond with a class label; see y (active), n (inactive)

Sample answers from the record:
{"compound": "COc1cc(Cn2cc(F)c(=O)[nH]c2=O)cc(OC)c1", "tested.system": "HL-60(TB) leukemia", "category": "n"}
{"compound": "Nc1c(C(=O)Nc2cccc(Cl)c2)sc2nc3c(cc12)C(O)CCC3 (configuration not stated)", "tested.system": "HL-60(TB) leukemia", "category": "y"}
{"compound": "CCCCCCCCn1ccc2cc(NC(=O)Cn3cc(CN4CCOCC4)nn3)ccc21", "tested.system": "HL-60(TB) leukemia", "category": "n"}
{"compound": "Cc1cc(Cl)ccc1Nc1nc(C(F)(F)F)ccc1C(=O)N/N=C/c1ccccc1Cl", "tested.system": "HL-60(TB) leukemia", "category": "n"}
{"compound": "O=c1oc2c(cc1-c1ccccc1)c[n+]([O-])c1ccccc21", "tested.system": "HL-60(TB) leukemia", "category": "n"}

// param item: Cc1c2ccncc2c(C)c2c1c1ccccc1n2CCCCCC(=O)O ; yields the recorded call
n

For this compound, state the assay outcome: Cc1ccc(O)c(N)c1
n

Could you please tell me the result logged for CCCNNC(=O)c1ccc(CNC(=O)/C=C/c2ccccc2)cc1 in this assay?
n

Any idea what this test logged for COc1cc2nc(NC3CCCC3)nc(NC3CCN(C(C)C)CC3)c2cc1OC ?
n

Short answer needed: outcome of this test for NC[C@@H]1O[C@H](O[C@@H]2[C@@H](CO)OC(O[C@@H]3[C@@H](O)[C@H](N)C[C@H](N)[C@H]3OC3O[C@H](CN)[C@@H](O)[C@H](O)[C@H]3N)[C@@H]2O)[C@H](N)[C@@H](O)[C@@H]1O (some centres not stated) ?
n

I'd appreciate the recorded outcome for CC(CCN1CCN(CCC(C)CC(C)(C)C)C1CC(C)CC(C)(C)C)CC(C)(C)C (configuration not stated) from this test.
n

// param item: COc1ccc(NC(=O)c2ccc(Cl)cc2Cl)cc1 ; yields the recorded call
n

---

# Test system: NCI-H226 lung
# procedure.summary: NCI-60 one-dose screen, 48 h (100 = growth as untreated, 0 = no growth, -100 = all killed)
# test.settings: 10 µM unless noted
Compounds without any hit were thinned out: in the full panel of roughly 83,000, 20% have a hit.
recorded.endpoint: growth (%)
# unit: % | format: bare number

Guide cases for growth, answers given:
{"molecule": "CCCCn1cc(C(=O)/C(C#N)=C/c2cc3ccccc3nc2Cl)c2cc(OC)ccc21", "tested.system": "NCI-H226 lung", "growth / %": 84.3}
{"molecule": "O=C1C=CC(=O)C2C1C1(Cl)C(Cl)=C(Cl)C2(Cl)C1(Cl)Cl (configuration not stated)", "tested.system": "NCI-H226 lung", "growth / %": 56.9}
{"molecule": "CC1(C)N=C(N)N=C(N)N1c1ccc(OCCCCOc2ccc(S(=O)(=O)F)cc2)c(Cl)c1", "tested.system": "NCI-H226 lung", "growth / %": 29.6}
{"molecule": "N#Cc1ncc(/N=C/c2ccc(N(CCCl)CCCl)cc2)s1", "tested.system": "NCI-H226 lung", "growth / %": -19.1}
{"molecule": "CC(=O)[O][Hg][CH2]C1(C)COC(C)([CH2][Hg][O]C(C)=O)CO1 (configuration not stated)", "tested.system": "NCI-H226 lung", "growth / %": 86.7}

For record Nc1ccc([N+](=O)[O-])c2c1Oc1ccccc1O2 the listed growth is 87.4

The molecule listed as C=C=[CH][Sn]([c]1ccccc1)([c]1ccccc1)[c]1ccccc1 shows growth equal to -40.4

From: PubChem BioAssay (NCI)
